- SYSTEM NAME: CREBBP bromodomain (His-CREBBP(1081-1197)) (Homo sapiens (Human), UniProt Q92793)
- Sequence (Q92793 1081-1197): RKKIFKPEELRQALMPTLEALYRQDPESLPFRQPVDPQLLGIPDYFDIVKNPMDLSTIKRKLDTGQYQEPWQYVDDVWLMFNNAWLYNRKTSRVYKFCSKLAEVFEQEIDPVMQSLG
- TEST DESCRIPTION: AlphaScreen in-vitro binding assay for CREBBP
- REPORTED CONDITIONS: single determination or n ≧ 2 independent determinations, read-out: Biochemical IC50 CREBBP
pIC50: −log10 of the molar value.
REPORTED ENDPOINT: pIC50

Cc1cc(N2C(=O)c3nc(C4CCOCC4)n(C(C)C)c3C2c2ccc(Cl)cc2)nn2c(C)nnc12 (centres unmarked) [Example 101] ... 4.71
Cc1cc(N2C(=O)c3nc(C4CCNCC4)n(C(C)C)c3C2c2ccc(Cl)cc2)cn2c(C)nnc12 (centres unmarked) [Example 75] ... 5.31
Cc1cc(N2C(=O)c3nc(C4=CCOCC4)n(C(C)C)c3[C@H]2c2ccc(Cl)cc2)nc2c1nnn2C [Example 164] ... 4.95

[P] CC(=O)N1CC=C(c2nc3c(n2C(C)C)C(c2ccc(Cl)cc2)N(c2cc(C)c4nnc(C)n4c2)C3=O)CC1 (centres unmarked) [Example 66]
[Q] Cc1cc(N2C(=O)c3nc(C4CCOCC4)n(C4COC4)c3C2c2ccc(Cl)cc2)cc2c1nnn2C (centres unmarked) [Example 105]
Exercise: Decide: P or Q , by lowest recorded pIC50. Answer with the label corresponding to your selection.
Solution: P

* * *

- SYSTEM NAME: CREBBP bromodomain (His-CREBBP(1081-1197)) (Homo sapiens (Human))
- TEST DESCRIPTION: AlphaScreen in-vitro binding assay for CREBBP
- REPORTED CONDITIONS: single determination or n ≧ 2 independent determinations, read-out: Biochemical IC50 CREBBP
REPORTED ENDPOINT: IC50 (µM)

Cc1cc(N2C(=O)c3nc(C4CC4)n(C(C)(C)C)c3C2c2ccc(Cl)cc2)cn(C)c1=O (stereo not shown) ... 0.51

[1] Cc1cc(N2C(=O)c3nc(C4=CCN(C)CC4)n(C4COC4)c3C2c2ccc(Cl)cc2)cc2c1nnn2C (stereo not shown)
[2] COc1cc(N2C(=O)c3nc(C4=CCN(C)CC4)n(C(C)C)c3C2c2ccc(Cl)cc2)cc2c1nnn2C (stereo not shown)
Exercise: Kindly compare 1 with 2 and tell me which has the lower IC50 figure. Give the chosen item's label as your response.
Solution: 1
(1: 3.95 µM, 2: 16.1 µM)

* * *

- SYSTEM NAME: CREBBP bromodomain (His-CREBBP(1081-1197)) (Homo sapiens (Human), UniProt Q92793)
- TEST DESCRIPTION: AlphaScreen in-vitro binding assay for CREBBP
- REPORTED CONDITIONS: single determination or n ≧ 2 independent determinations, read-out: Biochemical IC50 CREBBP
pIC50: −log10 of the molar value.
REPORTED ENDPOINT: pIC50

Some solved entries appear below for comparison.
Cc1cc(N2C(=O)c3nc(C)n(C4COC4)c3C2c2ccc(Cl)cc2)cc2c1nnn2C (stereo not drawn) [Example 94] ... 5.09
Cc1cc(N2C(=O)c3nc(-c4nccs4)n(C4CC4)c3C2c2ccc(Cl)cc2)cn(C)c1=O (stereo not drawn) [Example 43] ... 4.49
Cc1cc(N2C(=O)c3nc(C4=CCN(S(C)(=O)=O)CC4)n(C(C)C)c3C2c2ccc(Cl)cc2)cn2c(C)nnc12 (stereo not drawn) [Example 67] ... 5.28

[A] COc1ncccc1-c1nc2c(n1C(C)C)[C@@H](c1ccc(Cl)cc1)N(c1cc(C)c3nnc(C(F)F)n3c1)C2=O [Example 151]
[B] Cc1cc(N2C(=O)c3nc(C4CC4)n(C(C)C)c3C2c2ccc(Cl)cc2)cn2c(C)nnc12 (racemic) [Example 13]
Exercise: Sort A and B by pIC50 descending and give the first. Please respond with the label that marks your chosen entry.
Solution: B
(B: 5.35, A: 4.86)

[1] COc1ccc(-c2nc3c(n2C)C(=O)N(c2cc(C)c(=O)n(C)c2)[C@@H]3c2ccc(Cl)cc2)cn1 [Example 7]
[2] COc1ncccc1-c1nc2c(n1C(C)C)C(c1ccc(Cl)cc1)N(c1cc(OC)c3nnn(C)c3c1)C2=O (racemic) [Example 74]
Exercise: // compare measured pIC50 between 1 and 2 ; output the lower one Write the label of whichever entry you select.
Solution: 2
(2: 4.99, 1: 5.82)

[1] Cc1cc(N2C(=O)c3nc(C)n(C(C)C)c3C2c2ccc(Cl)cc2)cc2c1nnn2C (racemic) [Example 2]
[2] COC(=O)N1CCC(c2nc3c(n2C(C)C)C(c2ccc(Cl)cc2)N(c2cc(C)c4nnc(C)n4c2)C3=O)CC1 (stereo not drawn) [Example 76]
[3] CCn1c(C)nc2c1[C@@H](c1ccc(Cl)cc1)N(c1cc(C)c3nnn(C)c3c1)C2=O [Example 120]
Exercise: Ordering: ascending pIC50. Please list the labels according to the requested order.
Solution: 1, 3, 2

* * *

BRD3 (His-Brd3(20-477)) (Homo sapiens (Human)) measurements of IC50, listed per entry.
Sequence (Q15059 20-477): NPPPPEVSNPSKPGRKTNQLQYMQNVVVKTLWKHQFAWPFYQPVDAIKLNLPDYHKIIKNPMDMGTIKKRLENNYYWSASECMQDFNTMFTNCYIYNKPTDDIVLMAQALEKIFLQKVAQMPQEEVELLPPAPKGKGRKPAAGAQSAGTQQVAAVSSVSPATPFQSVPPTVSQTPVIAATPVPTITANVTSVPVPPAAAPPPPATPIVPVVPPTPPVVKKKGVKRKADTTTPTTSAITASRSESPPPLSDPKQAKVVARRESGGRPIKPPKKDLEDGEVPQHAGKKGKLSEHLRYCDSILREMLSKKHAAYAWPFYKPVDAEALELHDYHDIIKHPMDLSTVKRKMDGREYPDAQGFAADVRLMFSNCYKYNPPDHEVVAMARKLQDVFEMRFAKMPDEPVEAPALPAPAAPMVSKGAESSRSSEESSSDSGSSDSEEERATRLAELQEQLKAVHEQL
REPORTED ENDPOINT: IC50 (nM)

Below, 3 molecules whose answers are already recorded.
COc1ncccc1-c1nc2c(n1C(C)C)C(=O)N(c1cc(C)c(=O)n(C)c1)[C@@H]2c1ccc(Cl)cc1 [Example 45] ... 17
COc1ccc(-c2nc3c([nH]2)C(c2ccc(Cl)cc2)N(c2cc(C)c(=O)n(C)c2)C3=O)cn1 (centres unmarked) [Example 4] ... 68
Cc1cc(N2C(=O)c3nc(C4CCOCC4)n(C(C)C)c3C2c2ccc(Cl)cc2)nn2c(C)nnc12 (centres unmarked) [Example 101] ... 24

[I] CCn1c(-c2cccnc2OC)nc2c1C(=O)N(c1cc(C)c(=O)n(C)c1)[C@@H]2c1ccc(Cl)cc1 [Example 41]
[II] COc1cc(N2C(=O)c3nc(C4CC4)n(C(C)C)c3C2c2ccc(Cl)cc2)cn2c(C)nnc12 (centres unmarked) [Example 17]
[III] Cc1cc(N2C(=O)c3ncn(C(C)C)c3C2c2ccc(Cl)cc2)cc2c1nnn2C (centres unmarked) [Example 106]
[IV] COc1cc(N2C(=O)c3nc(C4CC4)n(C)c3C2c2ccc(Cl)cc2)cn2c(C)nnc12 (centres unmarked) [Example 56]
[V] Cc1cc(N2C(=O)c3nc(C)n(C(C)C)c3C2c2ccc(Cl)cc2)nn2c(C)nnc12 (racemic) [Example 18]
Exercise: Put the items in order so that reported IC50 rises from first to last. Form field (ranking): labels in requested order.
Solution: V, I, III, II, IV

* * *

Record set of pIC50 for target or system BRD4 (His-Brd4(44-477)) (Homo sapiens (Human)).
pIC50: −log10 of the molar value.
REPORTED ENDPOINT: pIC50

A selection of reference data follows.
Cc1cc(N2C(=O)c3nc(C4=CCOC4)n(C(C)C)c3C2c2ccc(Cl)cc2)cn2c(C)nnc12 (stereo not shown) ... 7.74
COc1ncccc1-c1nc2c(n1C(C)C)[C@@H](c1ccc(Cl)cc1)N(c1cc(C)c3nnc(C(F)F)n3c1)C2=O ... 7.96
Cc1cc(N2C(=O)c3nc(C4=CCOCC4)n(C(C)C)c3C2c2ccc(Cl)cc2)cn2c(C(F)F)nnc12 (stereo not shown) ... 7.89
Cc1cc(N2C(=O)c3c(nc(C)n3C3CC3)C2c2ccc(Cl)cc2)cn2c(C)nnc12 (stereo not shown) ... 7.32

[1] Cc1cc(N2C(=O)c3nc(C4=CCN(C(=O)OC(C)C)CC4)n(C(C)C)c3C2c2ccc(Cl)cc2)cn2c(C)nnc12 (stereo not shown)
[2] Cc1cc(N2C(=O)c3nc(C)n(C(C)C)c3C2c2ccc(Cl)cc2)cn2c(C)nnc12 (stereo not shown)
Exercise: Please indicate which entry, 1 or 2 , has the lower recorded pIC50 value. # reply format: chosen label
Solution: 2
(2: 7.26, 1: 7.73)

* * *

Target or system K-562 cells; recorded quantity GI50.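 Note: cellular ATP measured by luminescence after 4 days of exposure, 3-fold dilution series from 10 µM, DMSO vehicle-treated cells define 100%, cell-free medium wells −100%.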
REPORTED ENDPOINT: GI50 (nM)

COc1ncc(-c2nc3c([nH]2)C(c2ccc(Cl)cc2)N(c2cc(C)c4nnc(C)n4c2)C3=O)c(OC)n1 (stereo not drawn) ... 257
COc1cc(C(F)(F)F)ccc1-c1nc2c(n1C(C)C)C(c1ccc(Cl)cc1)N(c1cc(C)c3nnc(C(F)F)n3c1)C2=O (stereo not drawn) ... 116
Cc1cc(N2C(=O)c3nc(-c4nccs4)n(C4CC4)c3C2c2ccc(Cl)cc2)cn(C)c1=O (stereo not drawn) ... 356
Cc1cc(N2C(=O)c3nc(C4=CCOCC4)[nH]c3[C@H]2c2ccc(Cl)cc2)cn(C)c1=O ... 244

[I] COc1ncc(-c2nc3c([nH]2)C(c2ccc(Cl)cc2)N(c2cc(OC)c4nnc(C)n4c2)C3=O)c(OC)n1 (stereo not drawn)
[II] Cc1cc(N2C(=O)c3nc(C4=CCOCC4)n(C(C)C)c3C2c2ccc(Cl)cc2)cn2c(C)nnc12 (stereo not drawn)
[III] COc1ccc(-c2nc3c(n2C(C)C)[C@@H](c2ccc(Cl)cc2)N(c2cc(C)c4nnn(C)c4n2)C3=O)cn1
Exercise: Sort the 3 compounds by GI50; largest first, smallest last. Reply: labels, ordered per the request.
Solution: I, II, III
(I: 1720 nM, II: 203 nM, III: 21.4 nM)

[A] COc1ccc(-c2nc3c([nH]2)C(c2ccc(Cl)cc2)N(c2cc(OC)c4nnc(C)n4c2)C3=O)cn1 (stereo not drawn)
[B] Cc1cc(N2C(=O)c3nc(C4=CCOCC4)n(C(C)C)c3C2c2ccc(Cl)cc2)cc2c1nnn2C (stereo not drawn)
[C] COc1cc(N2C(=O)c3nc(C4CC4)n(C(C)C)c3C2c2ccc(Cl)cc2)cn2c(C)nnc12 (stereo not drawn)
Exercise: Rank descending by GI50. The reply should contain the labels ordered as requested.
Solution: A, C, B
